- TARGET SYSTEM: HRgpA-6H (Porphyromonas gingivalis) (UniProt P28784)
- METHOD: ELISA, coated HRgpA-6H
One threshold, 1, splits the recorded Ratio OD(Variant)/OD(WT) values: lower ones are true, equal or higher ones are false.

| BINDER | LABEL |
| --- | --- |
| KB001 mouse Fab VL L55V (Fab, V domains shown) VH: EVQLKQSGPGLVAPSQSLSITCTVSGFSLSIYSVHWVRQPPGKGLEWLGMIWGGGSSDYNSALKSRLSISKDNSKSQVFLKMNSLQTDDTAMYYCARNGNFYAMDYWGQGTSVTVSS VL: QIVLTQSPAIMSASLGERVTMTCTASSSVSSSFLHWYQQKPGSSPQLWIYSTSNVASGVPARFSGSGSGTSYSLTISSMEAEDAATYYCHQYHHSPYIYTFGGGTKLEIK | true |
| KB001 mouse Fab VH K64A (Fab, V domains shown) VH: EVQLKQSGPGLVAPSQSLSITCTVSGFSLSIYSVHWVRQPPGKGLEWLGMIWGGGSSDYNSALASRLSISKDNSKSQVFLKMNSLQTDDTAMYYCARNGNFYAMDYWGQGTSVTVSS VL: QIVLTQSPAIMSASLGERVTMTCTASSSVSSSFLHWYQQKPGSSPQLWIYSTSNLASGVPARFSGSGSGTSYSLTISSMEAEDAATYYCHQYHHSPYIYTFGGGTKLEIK | false |
| KB001 mouse Fab VH S30L (Fab, V domains shown) VH: EVQLKQSGPGLVAPSQSLSITCTVSGFSLLIYSVHWVRQPPGKGLEWLGMIWGGGSSDYNSALKSRLSISKDNSKSQVFLKMNSLQTDDTAMYYCARNGNFYAMDYWGQGTSVTVSS VL: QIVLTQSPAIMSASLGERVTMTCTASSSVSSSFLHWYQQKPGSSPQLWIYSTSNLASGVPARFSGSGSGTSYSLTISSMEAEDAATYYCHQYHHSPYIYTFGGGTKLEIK | true |
